Target: cathepsin E (catE) versus beta-secretase (BACE) (Homo sapiens, UniProt P14091)
Sequence (P14091 54-396): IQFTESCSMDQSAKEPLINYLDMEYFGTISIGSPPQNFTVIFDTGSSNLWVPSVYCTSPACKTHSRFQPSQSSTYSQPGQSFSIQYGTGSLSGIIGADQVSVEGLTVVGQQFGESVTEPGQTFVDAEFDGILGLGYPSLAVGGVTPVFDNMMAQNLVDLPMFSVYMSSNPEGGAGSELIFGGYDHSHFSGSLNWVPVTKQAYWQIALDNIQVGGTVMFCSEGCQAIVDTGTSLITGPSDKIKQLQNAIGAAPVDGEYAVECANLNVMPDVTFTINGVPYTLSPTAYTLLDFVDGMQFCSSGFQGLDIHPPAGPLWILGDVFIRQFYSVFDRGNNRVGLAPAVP
Assay: CatE/BACE selectivity (ratio of IC50 values)
Assay type: biochemical
Conditions: each value is an average of four experimental runs; multiple values = more than one experiment
Listing: IC50 CatE/IC50 BACE of selected compounds
Just the number.

>  <Compound>
CC(C)(C)c1cccc(C2(NCC(O)C(Cc3cc(F)cc(F)c3)NC(=O)c3csc(NS(C)(=O)=O)n3)CCCCC2)c1 (stereo not shown) [Example 325B-5]

>  <IC50 CatE/IC50 BACE>
1.2

$$$$
>  <Compound>
CC(C)(C)c1cccc(C2(NCC(O)C(Cc3cc(F)cc(F)c3)NC(=O)COCC(=O)O)CCCCC2)c1 (stereo not shown) [Example 325B-4]

>  <IC50 CatE/IC50 BACE>
3.2

$$$$
>  <Compound>
CC(C)(CCC(=O)NC(Cc1cc(F)cc(F)c1)C(O)CNC1(c2cccc(C(C)(C)C)c2)CCCCC1)C(=O)O (stereo not shown) [Example 325B-1]

>  <IC50 CatE/IC50 BACE>
8.3

$$$$

Okay, now this compound:
In: Form field - read-out: IC50 CatE/IC50 BACE; system: cathepsin E (catE) versus beta-secretase (BACE) (Homo sapiens, UniProt P14091); submitted item: CC(C)(C)c1cccc(C2(NCC(O)C(Cc3cc(F)cc(F)c3)NC(=O)CCCC(=O)O)CCCCC2)c1 (stereo not shown) [Example 325B-3]
Out: 3.4
